efflux ratio overview
Assay: Efflux ratio of permeability in human Caco-2 cells
Assay type: ADME, cell-based

// solved cases for efflux ratio follow
COc1ccc(-n2cc(-c3n[nH]c4cc(Cl)c(N[C@@H]5CCN(C6COC6)C5)cc34)cn2)cc1    0.55
Cn1cc(-c2n[nH]c3cc(Cl)c(N[C@@H]4CCN(C5COC5)C4)cc23)cn1    2.31
FC(F)(F)n1cc(-c2n[nH]c3cc(Cl)c(N[C@@H]4CCN(C5COC5)C4)cc23)cn1    0.82

Incoming: Specify reported efflux ratio for the molecule shown: `Cn1cc(-c2n[nH]c3cc(Cl)c(N[C@@H]4CCNC4)cc23)cn1`
Outgoing: 22.6

Incoming: // fetch efflux ratio given entry `COc1ccc(-n2cc(-c3n[nH]c4cc(Cl)c(N[C@H]5CNCC56CC6)cc34)cn2)cc1`
Outgoing: 1.3

All figures here come from ChEMBL document CHEMBL4840343.
